Consider the following compounds; for each one, report its IC50.
Target Or Test System: GST-Xa-hAAK1 (Homo sapiens)
Construct: made in house
Sequence (Q2M2I8 whole entry): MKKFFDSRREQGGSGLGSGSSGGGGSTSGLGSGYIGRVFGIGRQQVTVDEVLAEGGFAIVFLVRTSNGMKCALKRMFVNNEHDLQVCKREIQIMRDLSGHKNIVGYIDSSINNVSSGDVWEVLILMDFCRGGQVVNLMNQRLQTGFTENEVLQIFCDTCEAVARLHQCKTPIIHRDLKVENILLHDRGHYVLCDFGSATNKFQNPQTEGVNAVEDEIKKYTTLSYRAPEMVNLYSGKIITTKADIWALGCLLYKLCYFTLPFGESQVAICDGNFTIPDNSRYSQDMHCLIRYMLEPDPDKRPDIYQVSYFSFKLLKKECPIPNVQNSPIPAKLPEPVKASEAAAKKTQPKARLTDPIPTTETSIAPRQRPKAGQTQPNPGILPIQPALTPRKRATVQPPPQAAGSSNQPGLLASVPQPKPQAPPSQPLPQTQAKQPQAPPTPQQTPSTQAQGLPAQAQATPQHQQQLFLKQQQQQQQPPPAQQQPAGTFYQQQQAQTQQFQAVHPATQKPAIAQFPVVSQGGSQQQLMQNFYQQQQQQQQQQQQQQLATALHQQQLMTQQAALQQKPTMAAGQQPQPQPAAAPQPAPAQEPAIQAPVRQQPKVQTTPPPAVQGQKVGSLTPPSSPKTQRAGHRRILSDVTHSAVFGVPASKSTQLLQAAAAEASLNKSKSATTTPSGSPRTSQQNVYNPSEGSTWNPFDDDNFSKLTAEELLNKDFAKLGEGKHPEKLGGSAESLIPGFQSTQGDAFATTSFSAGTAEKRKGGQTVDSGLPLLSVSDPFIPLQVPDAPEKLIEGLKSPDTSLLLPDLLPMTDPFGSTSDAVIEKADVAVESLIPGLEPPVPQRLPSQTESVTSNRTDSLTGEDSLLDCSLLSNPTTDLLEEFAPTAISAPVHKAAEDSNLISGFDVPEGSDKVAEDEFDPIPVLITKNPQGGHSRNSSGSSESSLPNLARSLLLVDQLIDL
Test Method Notes: AAK1 kinase assay
Assay type: biochemical
Setup Conditions: ATP 22 μM, 3 hours at room temperature
Your answer should be a plain number; it is taken to be in nM.

Request: What value of IC50 has been reported for the following compound? CC(C)C[C@H](N)COc1cc2c(cc1Br)c1ccncc1c(=O)n2C [Example 3]
Result: 2.7

Request: Requested read-out: IC50. Entry: Cc1nccc2c1c(=O)n(C)c1cc(OC[C@](C)(N)CC(C)C)ccc21 (single isomer, unassigned) [Example 37]
Result: 3.9

Request: # lookup: IC50 of Cn1c(=O)c2cnccc2c2ccc(OCC3CCCCN3)cc21 (stereo not shown) [Example 57]
Result: 229

Request: Given the compound CC(C)C[C@H](N)COc1ccc2c3ccncc3c(=O)n(CC(F)(F)F)c2c1 [Example 45] , what is its reported IC50?
Result: 29

Ref: patent US8901305B2
